screen value listing for selected variants.
B1: PEX5 peptide 238-253 (Peroxisomal targeting signal 1 receptor), 16-mer library wild type / PEX14 Pex14 (PEX14 PEX14, residues 16-84) (parent)
chain 1: AQAEQWAAEFIQQQGT
chain 2: TPGSENVLPREPLIATAVKFLQNSRVRQSPLATRRAFLKKKGLTDEEIDMAFQQSGTAADEPSSLGPAT

Variants of: B1
Experiment: proteomic peptide phage display deep mutational scan (ProP-PD DMS): M13 P8 16-mer library selected against immobilised GST-tagged bait for four days (rounds), NGS of the eluted pools per day and pseudo-replica
Details: with PEX14 Pex14 (PEX14 PEX14, residues 16-84); bait immobilised on MaxiSorp plates (10 µg), library pre-cleared on GST, 2 h binding at 4 °C, five washes; one round per day, days 1-4; value from days 2 and 3; keep out of graded; scale: average fractional NGS count over selection days 2 and 3
observation.type: screen value

* chain 1 AQAETWAAEFIQQQGT [chain 1 Q5T] | 0.00028
* chain 1 AQAEQWAAEFIQQIGT [chain 1 Q14I] | 0.00105
* chain 1 AQAEQWAAEFDQQQGT [chain 1 I11D] | 0.00263
* chain 1 AQAEQWFAEFIQQQGT [chain 1 A7F] | 0.000286
* chain 1 AQAEQWAAEFIQQQGM [chain 1 T16M] | 0.000253
* chain 1 AQAEQWAADFIQQQGT [chain 1 E9D] | 0.00183
* chain 1 AQAEQWAAEFIQQQGV [chain 1 T16V] | 0.00206
* chain 1 AQAEQWAAEFTQQQGT [chain 1 I11T] | 0.000576
* chain 1 AQAEQWAAEFIQQQGS [chain 1 T16S] | 0.000223
* chain 1 AQAEQWAWEFIQQQGT [chain 1 A8W] | 0.00148
* chain 1 AQAEQWAAEFYQQQGT [chain 1 I11Y] | 0.000717
* chain 1 AQAEQWAFEFIQQQGT [chain 1 A8F] | 0.00013
* chain 1 AQAEQWAAEFIAQQGT [chain 1 Q12A] | 0
* chain 1 AQAEQWAAEFIQFQGT [chain 1 Q13F] | 0.000134
* chain 1 AQTEQWAAEFIQQQGT [chain 1 A3T] | 0.000152
* chain 1 AQVEQWAAEFIQQQGT [chain 1 A3V] | 0.000366
* chain 1 AQAYQWAAEFIQQQGT [chain 1 E4Y] | 0.000168
* chain 1 AEAEQWAAEFIQQQGT [chain 1 Q2E] | 0
* chain 1 AQAEQWAAEFIQQQKT [chain 1 G15K] | 0
* chain 1 AQAEQWAAEFIQQTGT [chain 1 Q14T] | 0
* chain 1 AQAEFWAAEFIQQQGT [chain 1 Q5F] | 0
* chain 1 AQAEQWAAEFIQYQGT [chain 1 Q13Y] | 0.000125
* chain 1 ATAEQWAAEFIQQQGT [chain 1 Q2T] | 0.000198
* chain 1 AQAEHWAAEFIQQQGT [chain 1 Q5H] | 0.000302
* chain 1 AQAEQWAQEFIQQQGT [chain 1 A8Q] | 0.00013
* chain 1 AQAEQWSAEFIQQQGT [chain 1 A7S] | 0.00111
